assayComment: COV-362 Cancer Cell Toxicity qHTS against the NCATS CANVASS Library (AID 1347352)
measurementParameters: COV-362 viability, CellTiter-Glo luminescence, 72 h; series mostly up to 38.3 µM
From the text: Natural products and their derivatives continue to be wellsprings of nascent therapeutic potential. […] To address this issue, the Canvass library of natural products was assembled (https://tripod.nih.gov/canvass), in collaboration with academic and industry researchers, for quantitative high-throughput screening (qHTS) across a diverse set of cell-based and biochemical assays. […]
Records with an inconclusive call do not appear. Activity calls are given as the source filed them. Calls follow the shape of the dose curve; as a rule, active = well fitted cell-killing curve with a large enough effect; inconclusive = small, poorly fitted or top-dose-only effect; inactive = flat fitted curve, though single readings scatter. Starred links: 1 amine or outer side, 2 acyl side, 3 side chain; linkers in the order of their positions; H or OH if unused. Positions of bridges follow the written chain, without caps; N, C: chain ends. Non-standard residues stand in square brackets, D forms with d. Residues, ends and D or L forms follow the SMILES beside them. ξ: configuration not given here. *: point of attachment. X3 = C[C@@H](Oc1ccc([C@H](N[*:1])C(=O)[*:2])cc1)[C@]1(/C=C\C(=O)[*:3])CO1; d(aIle) = CC[C@H](C)[C@@H](N)C(=O)O; X2 = CC(C)[C@@H](O)C(C)C(=O)*; ξNMeF = CNC(Cc1ccccc1)C(=O)O; ξT = CC(O)C(N)C(=O)O; ξS = NC(CO)C(=O)O
Respond only with the outcome that fits, drawn from YES for active, NO for inactive

Field: example entries. Status: answers known.
>>> answerlabel("C[C@]12CCC3[C@@H](CC[C@@H]4C[C@@H](O)CC[C@]34CO)[C@@]1(O)CC[C@@H]2C1=CC(=O)OC1 (stereo partly specified)")
"YES"
>>> answerlabel("CC[C@H](C)[C@H]1NC(=O)[C@@H](NC(=O)C(C)[C@H](O)C(C)C)[C@@H](C)OC(=O)C2COC(=O)CNC(=O)/C=C\\[C@]3(CO3)[C@@H](C)Oc3ccc(cc3)[C@H](NC1=O)C(=O)N(C)C(Cc1ccccc1)C(=O)NC(C(C)O)C(=O)N2 (stereo partly specified) (X2-T[d(aIle)][X3][ξNMeF][ξT][ξS]; ester 1-C; linker 3-6 via G)")
"NO"
>>> answerlabel("CC[C@H]1CN2CCc3c([nH]c4cccc(OC)c34)[C@@H]2C[C@@H]1/C(=C\\OC)C(=O)OC")
"NO"
>>> answerlabel("c1ccc2nc3c(cc2c1)[nH]c1ccccc13")
"NO"
>>> answerlabel("C/C=C1/CN2CC[C@]34C(=C(C(=O)OC)[C@H]1C[C@H]23)Nc1ccccc14")
"NO"

Now let's try a different one.
GET /call?item= C[C@]12CC(O)C3[C@@H](CC[C@@H]4C[C@@H](O)CC[C@]34CO)[C@@]1(O)CC[C@@H]2C1=CC(=O)OC1 (stereo partly specified) returns the recorded outcome of this test.
YES

// data source = PubChem BioAssay (NCATS)
